These entries and their values trace back to patent US20250074901A1.

Reported Emax values are given for each entry in this list.
TARGET_ENTITY: Kv7.2 (Homo sapiens, UniProt O43526)
Construct: expressed in transfected cells
ASSAY_NOTES: Activation of Kv7.2 (in vitro assay, concentration response curve)
Assay type: cell-based
DETAILS: Kv7.2 activation max %
Respond with the bare value in %.

COMPOUND | Emax / %
O=C(NCc1ccnc(SC(F)F)c1)N[C@H]1C[C@H](C(F)(F)F)C1 | 51
CC(C)(C)CC1(NC(=O)NCc2ccnc(OC(F)F)c2)CC1 | 75
O=C(NCc1ccnc(-n2ccnc2)c1)NC1CCCC(C2CC2)C1 (stereo not drawn) | 52

Specify reported Emax for the compound shown: O=C(NCc1ccnc(OC(F)F)c1)NC1CC(F)(F)C1
51

Give the measured Emax for O=C(NCc1ccnc(OC(F)F)c1)NC1COC(C(F)(F)F)C1 (stereo not drawn)
53

Annotate the compound C[Si](C)(C)CCNC(=O)NCc1ccnc(OC(F)F)c1 with its measured Emax.
82

Provide Emax value for the following compound: CC1(C)C[C@H](NC(=O)NCc2ccnc(-n3cnc(C(F)(F)F)c3)c2)[C@@H]1O (racemic)
44

Provide only the value of recorded Emax for O=C(NCc1ccnc(OCF)c1)N[C@@H]1[C@H]2CCC(F)(F)[C@H]21 (racemic)
62

* * *

TARGET_ENTITY: Kv7.2 (Homo sapiens, UniProt O43526)
Construct: expressed in transfected cells
ASSAY_NOTES: Activation of Kv7.2 (in vitro assay, concentration response curve)
Assay type: cell-based
DETAILS: Kv7.2 activation max %
MEASURED_ENDPOINT: Emax

Example entries and their recorded answers appear below.
COMPOUND | MEASURED_ENDPOINT | RESULT
O=C(NCc1ccnc(OC(F)F)c1)NC1CCC2C1C2(F)F (racemic) | Emax | 49%
N#Cc1cc(CNC(=O)N[C@H]2C[C@@H]3CC[C@H]2C3)ccn1 (racemic) | Emax | 49%
O=C(Nc1cccc(Cl)c1)NC(CO)c1ccnc(OCC(F)(F)F)c1 (stereo not drawn) | Emax | 64%
O=C(NCc1ccnc(OC(F)F)c1)Nc1cncc(Cl)n1 | Emax | 48%
O=C(NCc1ccnc(OC(F)F)c1)NC1CCCCC1(O)C(F)(F)F (stereo not drawn) | Emax | 56%
CC(CNC(=O)NCc1ccnc(OC(F)F)c1)OC(F)F (stereo not drawn) | Emax | 39%

Look up and report measured Emax (Kv7.2 (Homo sapiens, UniProt O43526)) for the following compound: CC1CC(C)(C)CCC1NC(=O)NCc1ccnc(C#N)c1 (stereo not drawn)
60%

Retrieve Emax on Kv7.2 (Homo sapiens, UniProt O43526); query O=C(NCc1ccnc(OC(F)F)c1)N[C@H]1C[C@@H](C(F)(F)F)C1
65%

Fill in: Emax on Kv7.2 (Homo sapiens, UniProt O43526), entry O=C(NCc1ccnc(OC(F)F)c1)NC1CC[C@@H]2CC[C@H]12 (mixture of isomers)
75%

GET Emax | system: Kv7.2 (Homo sapiens, UniProt O43526) | item: CC(NC(=O)NCc1ccnc(OC(F)F)c1)C1CC2CCC1C2 (stereo not drawn)
76%

Fill in Emax for O=C(NCc1ccnc(OC(F)F)c1)N[C@@H]1CCC[C@H](C(F)(F)F)C1 [Example 250] tested with Kv7.2 (Homo sapiens, UniProt O43526).
75%

Consider the compound O=C(NCc1ccnc(OC(F)F)c1)NCC1(C(F)(F)F)CCC1 tested on Kv7.2 (Homo sapiens, UniProt O43526); state its Emax.
54%

Quote Emax with test system Kv7.2 (Homo sapiens, UniProt O43526) for O=C(NCc1ccnc(OC(F)F)c1)NN1CC2CCCC2C1 (stereo not drawn)
68%

Please report Emax with Kv7.2 (Homo sapiens, UniProt O43526) for item O=C(NCc1ccnc(OC(F)F)c1)N[C@H]1C[C@H](C(F)(F)F)C1 .
58%

Report its Emax with Kv7.2 (Homo sapiens, UniProt O43526) as the test system: CC1(C)CCC(NC(=O)NCc2ccnc(OC3COC3)c2)CC1
71%

* * *

TARGET_ENTITY: Kv7.2 (Homo sapiens, UniProt O43526)
ASSAY_NOTES: Activation of Kv7.2 (in vitro assay, concentration response curve)
DETAILS: activation of Kv7.2
MEASURED_ENDPOINT: pEC50
Bear in mind: pEC50 is minus log10 of a mol/L concentration; give just that figure.

Solved cases (2 shown):
COMPOUND | pEC50
O=C(NCc1ccnc(-n2cccn2)c1)N[C@H]1C[C@@H]2CC[C@H]1C2 | 6.42
O=C(NC(CO)c1ccnc(OC(F)F)c1)N[C@@H]1COc2ccccc2C1 (stereo in doubt) | 6.37

Name the recorded pEC50 of the compound listed here: CC1(NC(=O)NCc2ccnc(OC(F)F)c2)CCC(F)(F)C1 (stereo not shown)
5.99

Given the compound O=C(NCc1ccnc(OCC(F)(F)F)c1)NCC1CCC1 , write its reported pEC50.
6.72

Read off the recorded pEC50 for O=C(NCc1ccnc(OC(F)F)c1)NCC1CCC1
6.48

Give pEC50 for the following compound: O=C(NCc1ccnc(OCC(F)(F)F)c1)NC12CC(F)(C1)C2
6.68

Read the entry O=C(NCc1ccnc(-n2cccn2)c1)N[C@@H]1C[C@H]2CC[C@@H]1C2 (racemic) [Example 7] and write its reported pEC50.
6.23

* * *

TARGET_ENTITY: Kv7.2 (Homo sapiens, UniProt O43526)
ASSAY_NOTES: Activation of Kv7.2 (in vitro assay, concentration response curve)
DETAILS: activation of Kv7.2
Listing of entries alongside the reported pEC50.
Friendly reminder that pEC50 comes from taking -log10 of the concentration in mol/L.

MOLECULE | TARGET_ENTITY | pEC50
O=C(NCc1ccnc(OC(F)F)c1)N[C@H]1CC[C@](O)(C(F)(F)F)C1 (racemic) [Example 187] | Kv7.2 (Homo sapiens, UniProt O43526) | 5.94
O=C(NC(CO)c1ccnc(OC(F)F)c1)N[C@H]1C[C@H](C(F)(F)F)C1 (some centres unmarked) [Example 91] | Kv7.2 (Homo sapiens, UniProt O43526) | 5.90
O=C(NCc1ccnc(OC(F)F)c1)Nc1cccc(CF)c1 [Example 132] | Kv7.2 (Homo sapiens, UniProt O43526) | 5.97
O=C(NCc1ccnc(OC(F)F)c1)Nc1ccc(F)c(F)c1F [Example 272] | Kv7.2 (Homo sapiens, UniProt O43526) | 6.04
O=C(NCc1ccnc(OC(F)F)c1)NCC12CC(F)(C1)C2 [Example 32] | Kv7.2 (Homo sapiens, UniProt O43526) | 6.08
O=C(NCc1ccnc(OC(F)F)c1)N[C@@H](C(F)F)C1CC(F)(F)C1 [Example 230] | Kv7.2 (Homo sapiens, UniProt O43526) | 5.96
Cc1cccc(NC(=O)NCc2ccnc(OC(F)F)c2)n1 [Example 218] | Kv7.2 (Homo sapiens, UniProt O43526) | 5.83

Tell us which pEC50 value is on record for O=C(NCc1ccnc(OC(F)F)c1)NC1CCC1 [Example 45]
5.91

* * *

TARGET_ENTITY: Kv7.2 (Homo sapiens, UniProt O43526)
Construct: expressed in transfected cells
ASSAY_NOTES: Activation of Kv7.2 (in vitro assay, concentration response curve)
Assay type: cell-based
DETAILS: Kv7.2 activation max %
MEASURED_ENDPOINT: Emax (%)
Respond numerically; units are % and should not be typed.

Use the examples below as a reference point.
COMPOUND | TARGET_ENTITY | UNIT_ANNOTATION | Emax
O=C(NCc1ccnc(OC(F)F)c1)NC12CCC(CC1)CC2 | Kv7.2 (Homo sapiens, UniProt O43526) | % | 61
O=C(NCc1ccnc(OC(F)F)c1)NC1CCC(OC(F)F)C1 (centres unmarked) | Kv7.2 (Homo sapiens, UniProt O43526) | % | 49
CC(F)(F)COc1cc(CNC(=O)NC23CC(F)(C2)C3)ccn1 | Kv7.2 (Homo sapiens, UniProt O43526) | % | 60
CC(NC(=O)NCc1ccnc(OC(F)F)c1)C1CCC1 (centres unmarked) | Kv7.2 (Homo sapiens, UniProt O43526) | % | 51

The record that follows has no Emax shown yet.
Tell me its Emax given O=C(NCc1ccnc(OCC(F)(F)F)c1)N[C@H](C1CC1)C(F)(F)F as the entry.
61

* * *

TARGET_ENTITY: Kv7.2 (Homo sapiens, UniProt O43526)
ASSAY_NOTES: Activation of Kv7.2 (in vitro assay, concentration response curve)
DETAILS: activation of Kv7.2
Attribute: EC50
Give the value, in units of nM, as a plain number.

Solved entries:
MOLECULE | MEASURED_ENDPOINT | MEASURED_NUMBER
[2H]C([2H])(NC(=O)NCc1ccnc(OC(F)F)c1)C1CCC1 [Example 125] | EC50 | 750
O=C(NCc1ccnc(OCC(F)CF)c1)NC12CC(F)(C1)C2 (stereo not drawn) [Example 216] | EC50 | 1470

The record that follows has no EC50 shown yet.
Write down EC50 measured for item CC1CC(C)(C)CCC1NC(=O)NCc1ccnc(-n2ccnc2)c1 (stereo not drawn) [Example 9]
700
